- Tested on: human erythrocytes
- Experiment: Hemolytic activity
- Type: cell-based
Measured Hemolytic activity: peptide concentration for 100% lysis of human erythrocytes by item

Reference set, count: 2
| Input Smiles | Result |
| --- | --- |
| C[C@@H]1NC(=O)[C@H](CCCCN)NC(=O)[C@H](C)NC(=O)[C@@H]2CCCN2C(=O)[C@@H](Cc2ccc(O)cc2)NC(=O)[C@H](C)NC(=O)[C@@H](CCCCN)NC(=O)[C@H](C)NC(=O)[C@H](CCCCN)NC(=O)[C@H](C)NC(=O)[C@@H]2CCCN2C(=O)[C@@H](Cc2ccc(O)cc2)NC(=O)[C@H](C)NC(=O)[C@H](CCCCN)NC1=O | >800 µg/mL |
| CC(C)C[C@@H]1NC(=O)[C@H](CCCCN)NC(=O)[C@H](C(C)C)NC(=O)[C@H](CCCCN)NC(=O)[C@@H]2CCCN2C(=O)[C@@H](Cc2ccc(O)cc2)NC(=O)[C@H](CCCCN)NC(=O)[C@H](CC(C)C)NC(=O)[C@H](CCCCN)NC(=O)[C@H](C(C)C)NC(=O)[C@H](CCCCN)NC(=O)[C@@H]2CCCN2C(=O)[C@@H](Cc2ccc(O)cc2)NC(=O)[C@H](CCCCN)NC1=O | >800 µg/mL |

Exam item: Which Hemolytic activity: peptide concentration for 100% lysis of human erythrocytes reading was recorded for the compound `CC(C)[C@@H]1NC(=O)[C@H](CCCCN)NC(=O)[C@H](C)NC(=O)[C@@H]2CCCN2C(=O)[C@@H](Cc2ccc(O)cc2)NC(=O)[C@H](C(C)C)NC(=O)[C@@H](CCCCN)NC(=O)[C@H](C)NC(=O)[C@H](CCCCN)NC(=O)[C@H](C(C)C)NC(=O)[C@@H]2CCCN2C(=O)[C@@H](Cc2ccc(O)cc2)NC(=O)[C@H](C)NC(=O)[C@H](CCCCN)NC1=O` ?
Marked response: >800 µg/mL

----------
- Test system: P. aeruginosa H187
- Assay type: cell-based, Pseudomonas aeruginosa
- Test Parameters: H187
Reported Property: Minimum Inhibitory Concentration (activity)

| Input Smiles | Target Of Assay | Result |
| --- | --- | --- |
| CC(C)C[C@@H]1NC(=O)[C@H](CCCCN)NC(=O)[C@H](C(C)C)NC(=O)[C@@H]2CCCN2C(=O)[C@H](Cc2ccc(O)cc2)NC(=O)[C@H](CC(C)C)NC(=O)[C@H](CCCCN)NC(=O)[C@H](C(C)C)NC(=O)[C@H](CCCCN)NC(=O)[C@H](CC(C)C)NC(=O)[C@@H]2CCCN2C(=O)[C@@H](Cc2ccc(O)cc2)NC(=O)[C@H](C(C)C)NC(=O)[C@H](CCCCN)NC1=O | P. aeruginosa H187 | >200 µg/mL |
| CC(C)C[C@@H]1NC(=O)[C@@H](CCCCN)NC(=O)[C@H](C(C)C)NC(=O)[C@@H](CCCCN)NC(=O)[C@H](CC(C)C)NC(=O)[C@@H]2CCCN2C(=O)[C@@H](Cc2ccc(O)cc2)NC(=O)[C@H](C(C)C)NC(=O)[C@@H](CCCCN)NC(=O)[C@H](CC(C)C)NC(=O)[C@@H](CCCCN)NC(=O)[C@H](C(C)C)NC(=O)[C@@H]2CCCN2C(=O)[C@@H](Cc2ccc(O)cc2)NC1=O | P. aeruginosa H187 | >200 µg/mL |

Consider the record given below.
Exam item: Which Minimum Inhibitory Concentration (activity) reading was recorded for the compound `C[C@@H]1NC(=O)[C@H](CCCCN)NC(=O)[C@H](C)NC(=O)[C@@H]2CCCN2C(=O)[C@@H](Cc2ccc(O)cc2)NC(=O)[C@H](C)NC(=O)[C@@H](CCCCN)NC(=O)[C@H](C)NC(=O)[C@H](CCCCN)NC(=O)[C@H](C)NC(=O)[C@@H]2CCCN2C(=O)[C@@H](Cc2ccc(O)cc2)NC(=O)[C@H](C)NC(=O)[C@H](CCCCN)NC1=O` ?
Marked response: >200 µg/mL

Measured values drawn from patent US6358921B1 for this set.
